Values compiled from PubChem BioAssay (NCI).

- Test system: SF-295 CNS
- measurement_notes: NCI-60 one-dose screen, 48 h
- conditions: 10 µM unless noted
About 83,000 compounds went through this panel and 20% of them were active in at least one assay; those are over-represented in the sample as a whole. Activity calls are given as the source filed them. The calls were made as follows: active = growth percent below 10; inactive = the rest.
Labels: Yes = active, No = inactive

1. COC(=O)N[C@H]1CCc2c(Br)c(OC)c(OC)c(OC)c2-c2ccc(SC)c(=O)cc21; Yes
2. COc1ccc(S(=O)(=O)Nc2c(/C=C\c3cc(OC)c(OC)c(OC)c3)ccc(OC)c2O)cc1OC; No
3. COC(=O)[C@@H](C)C[C@H](Cc1ccc2ccccc2c1)NC(=O)c1csc([C@@H](C[C@H](C(C)C)N(C)C(=O)[C@@H](NC(=O)[C@H]2CCCCN2C)C(C)C)OC(C)=O)n1; No
4. Oc1ccc2c3c1OC1[C@@H](O)CC[C@@]4(O)[C@@H](C2)N(CC2CCC2)CC[C@]314 (some centres undefined); No
5. Cc1cc(-c2nc3cc(F)ccc3[se]2)cc(F)c1N; No
6. CC[C@H](C)[C@H](NC(=O)c1nccn1C)C(=O)N(C)[C@H](C[C@@H](OC(C)=O)c1nc(C(=O)N[C@@H](Cc2ccccc2)C[C@H](C)C(=O)OC)cs1)C(C)C; Yes
7. O=C(CC1(O)C(=O)N(Cc2ccccc2)c2ccc(Cl)cc21)c1ccc(C(=O)NCC2CCC3(CC2)OOC2(CCCCC2)OO3)cc1 (centres undefined); Yes
8. C[N+](C)(C)Cc1cc(Cl)ccc1O; No
9. COP(=O)(OC)C(O)c1ccc(Cl)cc1 (centres undefined); No

====

- Tested on: CCRF-CEM leukemia
- measurement_notes: NCI-60 one-dose screen, 48 h (100 = growth as untreated, 0 = no growth, -100 = all killed)
- conditions: 10 µM unless noted
The panel holds about 83,000 compounds, 20% with a hit somewhere; the sample as a whole holds those more often.
value_kind: growth (%)

1) COC(=O)C12CC(NC(=O)c3csc([C@@H](C[C@H](C(C)C)N(C)C(=O)[C@@H](NC(=O)[C@H]4CCCCN4C)C4CC4)OC(C)=O)n3)(C1)C2; 17.2
2) CCOC(=O)[C@@H](C)C[C@H](Cc1ccccc1)NC(=O)c1csc([C@@H](C[C@H](C(C)C)N(C)C(=O)CNC(=O)[C@H]2CCCCN2C)OC(C)=O)n1; 5.17
3) Fc1cccc(NCOOC2(OOCNc3cccc(F)c3)CCCCC2)c1; 84.1
4) CCCCCCCCCCCCCCCCCCOc1ccccc1COP(=O)(O)OOCC[N+](C)(C)C; -12.8
5) CCOC(=O)CCN(C)C1=Nc2ccc(Cl)cc2C(c2ccccc2)=[N+]([O-])C1; 99.6
6) O=c1[nH]cc(N(CCCl)CCCl)c(=O)[nH]1; 31
7) CSc1nc(Cl)cc(N2CC2)n1; 77.6
8) CCCCCCCCCCCCCCCCCC1OC[C@H](COC(=O)O[C@@H](C(=O)O[C@H]2C[C@@]3(O)[C@@H](OC(=O)c4ccccc4)[C@@H]4[C@]5(OC(C)=O)CO[C@@H]5C[C@H](O)[C@@]4(C)C(=O)[C@H](OC(C)=O)C(=C2C)C3(C)C)[C@@H](NC(=O)c2ccccc2)c2ccccc2)O1 (stereo partly specified); 44.8
9) N#CCCNc1ccccc1; 80.6
10) Fc1ccc(C2=CCNCC2)cc1; 118
11) CN(C)C(=O)Oc1ccccc1-c1ccccc1; 96.9
12) c1ccc(COc2ccc3[nH]cc(CCN(Cc4ccccc4)Cc4ccccc4)c3c2)cc1; 73.8
13) O=C([O][Hg][CH2]C1OCCOC1[CH2][Hg][O]C(=O)c1ccccc1)c1ccccc1 (stereo unspecified); -15.8
14) CC1=C(CCCNS(C)(=O)=O)C2=C(C)C3(CC3)[C@@](C)(O)C(=O)C2=C1; 90.9
15) COC(=O)[C@@H](C)C[C@H](Cc1ccccc1)NC(=O)c1csc([C@@H](C[C@H](C(C)C)N(C)C(=O)[C@@H](NC(=O)[C@H]2CCCCN2C)C(C)C)OC(C)=O)n1; 0.404
16) COc1ccc(/C=C\c2cc(OC)c(OC)c(OC)c2)cc1NC(=O)/C=C/c1cc(OC)c(OC)c(OC)c1; 39.2
17) C/C(=C\c1ccn(-c2ccccc2N)n1)[C@@H]1C[C@@H]2O[C@]2(C)CCC[C@H](C)[C@H](O)[C@@H](C)C(=O)C(C)(C)[C@@H](O)CC(=O)O1; 19.6
18) C[C@@]1(CCCCCCCCCc2ccc(O)cc2)C[C@]2(C)OC(=O)C[C@@H]2OO1; 75.4
19) C=CC[n+]1ccc(-c2cc[n+](CC=C)cc2)cc1; 84.7
20) Fc1ccc(N2COOC3(OOC2)C2CC4CC(C2)CC3C4)cc1; 94.2
21) CC12CCC=CC1CCC1C2CCC2(C)C(c3ccc(=O)oc3)CCC12O (stereo unspecified); -16.6
22) COc1ccc([As]=[As]c2ccc(OC)c(NCS(=O)(=O)O)c2)cc1NCS(=O)(=O)O (stereo unspecified); -13.9
23) CC(=O)O[C@H](C[C@H](C(C)C)N(C)C(=O)[C@@H](NC(=O)[C@H]1CCCCN1C)C(C)C)c1nc(C(=O)N[C@@H](Cc2ccccc2)C[C@H](C)C(=O)O)c(CCOCc2ccccc2)s1; 9.38
24) O=Cc1cn(Cc2ccc(Cl)cc2)c2ccccc12; 89.6
25) CCC1(C(C)C)C(=O)NC(=S)NC1=O; 97.3
26) CC1(C)N=C(N)N=C(N)N1c1ccc(CCC(=O)Nc2ccc(S(=O)(=O)F)cc2)c(Cl)c1; 44.9
27) COc1ccc(S(=O)(=O)Nc2c(/C=C\c3cc(OC)c(OC)c(OC)c3)ccc(OC)c2O)cc1OC; 12
28) O=C(O)C(O)C(O)C1[O][Sb]([c]2ccc([N+](=O)[O-])cc2)[O]C1CO (stereo unspecified); 98.5
29) O=NNc1ccccn1; 126
30) CCn1nccc1NC(=O)C(=O)c1cn(Cc2ccc(F)cc2)c2cccc(OC)c12; 76.6
31) [Au+].[N-]=C=O.c1ccc(CN2[CH-]N(Cc3ccccc3)C(c3ccccc3)=C2c2ccccc2)cc1; 66.8
32) Cc1ccc(C(Cc2ccccc2)NCCO)cc1 (stereo unspecified); 98.5
33) O=C1C2CCC1C(N1CCCC1)CC2 (stereo unspecified); 94.3
34) O=C(O)C(Cl)(Cl)C(F)(F)F; 100
35) OCc1ccc2c(c1)OCO2; 102
36) CC(CO)NC1CCCCC1 (stereo unspecified); 123
